# SUBJECT OF TEST: DNA topoisomerase 1 (Homo sapiens) (UniProt P11387)
# MEASUREMENT PROTOCOL: Topoisomerase I DNA relaxation activity was evaluated by Fluorescence assay using Ethidium Bromide after heat denaturation of pBR322 DNA at concentration 50 uM
# EXPERIMENTAL CONTEXT: Escherichia coli
EXPERIMENTAL ENDPOINT: Change (%)
Please respond with the number in % and leave the unit unwritten.

Request: Entry under review: CN(C)CCCNC(=O)c1cc(NC(=O)c2cc(NC(=O)Cn3cc(C4=C(c5c[nH]c6ccccc56)C(=O)NC4=O)c4ccccc43)cn2C)cn1C . Reported Change?
Result: 4

Request: Which Change is listed for CN(C)CCCNC(=O)c1cc(NC(=O)Cn2cc(C3=C(c4c[nH]c5ccccc45)C(=O)NC3=O)c3ccccc32)cn1C ?
Result: 0

Request: What Change value was documented for this molecule, COC(=O)c1cc(NC(=O)Cn2cc(C3=C(c4c[nH]c5ccccc45)C(=O)NC3=O)c3ccccc32)cn1C ?
Result: 18

Request: Entry COC(=O)c1cc(NC(=O)c2cc(NC(=O)c3cc(NC(=O)Cn4cc(C5=C(c6c[nH]c7ccccc67)C(=O)NC5=O)c5ccccc54)cn3C)cn2C)cn1C : reported Change = ?
Result: 9

Request: Return reported Change; argument: COC(=O)c1cc(NC(=O)c2cc(NC(=O)Cn3cc(C4=C(c5c[nH]c6ccccc56)C(=O)NC4=O)c4ccccc43)cn2C)cn1C
Result: 7

Request: Fill in the blank: the reported Change of CC[C@@]1(O)C(=O)OCc2c1cc1n(c2=O)Cc2cc3ccccc3nc2-1 is ____.
Result: 7

Request: Can you look up the measured Change of CN(C)CCCNC(=O)c1cc(NC(=O)c2cc(NC(=O)c3cc(NC(=O)Cn4cc(C5=C(c6c[nH]c7ccccc67)C(=O)NC5=O)c5ccccc54)cn3C)cn2C)cn1C for me?
Result: 7

---

# SUBJECT OF TEST: DNA topoisomerase 1 (Homo sapiens) (UniProt P11387)
# Sequence (whole entry): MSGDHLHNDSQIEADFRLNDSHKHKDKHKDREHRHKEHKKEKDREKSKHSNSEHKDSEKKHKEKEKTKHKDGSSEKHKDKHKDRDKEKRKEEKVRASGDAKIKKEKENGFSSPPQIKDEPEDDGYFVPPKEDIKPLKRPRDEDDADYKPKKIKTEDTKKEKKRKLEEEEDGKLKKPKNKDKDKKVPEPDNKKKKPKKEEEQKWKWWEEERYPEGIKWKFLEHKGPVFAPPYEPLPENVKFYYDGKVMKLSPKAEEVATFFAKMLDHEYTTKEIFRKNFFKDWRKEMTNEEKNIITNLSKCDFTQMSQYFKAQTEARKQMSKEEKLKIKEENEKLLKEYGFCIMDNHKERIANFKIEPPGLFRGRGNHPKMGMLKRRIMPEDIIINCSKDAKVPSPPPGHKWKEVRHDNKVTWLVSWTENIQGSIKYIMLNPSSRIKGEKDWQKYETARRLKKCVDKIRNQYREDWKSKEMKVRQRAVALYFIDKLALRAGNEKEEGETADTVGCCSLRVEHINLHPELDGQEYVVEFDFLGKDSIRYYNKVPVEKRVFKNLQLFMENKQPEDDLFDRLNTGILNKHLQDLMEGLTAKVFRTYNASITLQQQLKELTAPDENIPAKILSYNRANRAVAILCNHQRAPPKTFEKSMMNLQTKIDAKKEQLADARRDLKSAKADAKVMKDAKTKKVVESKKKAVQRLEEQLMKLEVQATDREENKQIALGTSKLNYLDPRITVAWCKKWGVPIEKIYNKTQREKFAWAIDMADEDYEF
# MEASUREMENT PROTOCOL: Topoisomerase I DNA relaxation activity was evaluated by Agarose Gel Electrophoresis test at concentration 250 uM
# EXPERIMENTAL CONTEXT: Escherichia coli
EXPERIMENTAL ENDPOINT: inhibition (%)
# number only, unit % dropped from output

Request: Please report the recorded inhibition for CN(C)CCCNC(=O)c1cc(NC(=O)Cn2cc(C3=C(c4c[nH]c5ccccc45)C(=O)NC3=O)c3ccccc32)cn1C .
Result: 25

Request: Which inhibition value is on record for COC(=O)c1cc(NC(=O)c2cc(NC(=O)Cn3cc(C4=C(c5c[nH]c6ccccc56)C(=O)NC4=O)c4ccccc43)cn2C)cn1C ?
Result: 0

Request: Dear colleague, I am looking for the recorded inhibition of the following compound: COC(=O)c1cc(NC(=O)Cn2cc(C3=C(c4c[nH]c5ccccc45)C(=O)NC3=O)c3ccccc32)cn1C
Result: 0

Request: Fill in the blank: the reported inhibition of CN(C)CCCNC(=O)c1cc(NC(=O)c2cc(NC(=O)c3cc(NC(=O)Cn4cc(C5=C(c6c[nH]c7ccccc67)C(=O)NC5=O)c5ccccc54)cn3C)cn2C)cn1C is ____.
Result: 100

Request: Consider the compound CN(C)CCCNC(=O)c1cc(NC(=O)c2cc(NC(=O)Cn3cc(C4=C(c5c[nH]c6ccccc56)C(=O)NC4=O)c4ccccc43)cn2C)cn1C and give its measured inhibition.
Result: 75

Request: Any idea what its inhibition is? The compound is COC(=O)c1cc(NC(=O)c2cc(NC(=O)c3cc(NC(=O)Cn4cc(C5=C(c6c[nH]c7ccccc67)C(=O)NC5=O)c5ccccc54)cn3C)cn2C)cn1C
Result: 0

Entry source: ChEMBL document CHEMBL1129036
